This listing pairs compounds with measured HLM (% Qh).
assay: human liver microsome (HLM) metabolic stability assay; type: in vitro ADME; conditions: human liver microsomes; % hepatic blood flow calculated from t1/2

As a guide, the following entries are already answered.
- COMPOUND: "CCOc1c(C(=O)O)cnn1-c1cccc(-c2cccc(C)c2OCc2ccc3c(c2)CCN(C(C)C)C3)n1 [Compound 32]"
  REPORTED RESULT: "<24 % Qh"
- COMPOUND: "COc1c(C(=O)O)cnn1-c1cccc(-c2cccc(C)c2OCc2ccc3c(c2)CCN([C@H]2CC[C@@H](OC)CC2)C3)n1 [Compound 91]"
  REPORTED RESULT: "<24 % Qh"
- COMPOUND: "COc1c(C(=O)O)cnn1-c1cccc(-c2cccc(C)c2OCc2ccc3c(c2)CCN(CC(C)(C)C)C3)n1 [Compound 14]"
  REPORTED RESULT: "31 % Qh"

For the next question, use this compound.
Input: // returns reported HLM (% Qh) for input COc1c(C(=O)O)cnn1-c1cccc(-c2cccc(C)c2OCc2ccc3c(c2C)CCN(C2CCCOC2)C3)n1 (stereo not shown) [Compound 238]
Output: <24 % Qh

----------
test: Assessment of solubility (McIlvaine buffers, 24 h shake, UPLC-UV); format: physicochemical; conditions: pH 6.8, aqueous buffer, kinetic from dmso stock
ENDPOINT: solubility at 24 h (µg/mL)

As a guide, the following entries are already answered.
- SMILES: "COc1c(C(=O)O)cnn1-c1cccc(-c2cccc(C)c2OCc2ccc3c(c2Cl)CCN(C2COC2)C3)n1"
  UNIT: "µg/mL"
  solubility at 24 h: 85
- SMILES: "CCOc1c(C(=O)O)cnn1-c1cccc(-c2cccc(C)c2OCc2ccc3c(c2C)CCN(C[C@H]2CCCCO2)C3)n1"
  UNIT: "µg/mL"
  solubility at 24 h: 63
- SMILES: "CCOc1c(C(=O)O)cnn1-c1cccc(-c2cccc(Cl)c2OCc2ccc3c(c2)CCNC3)n1"
  UNIT: "µg/mL"
  solubility at 24 h: 75
- SMILES: "COc1c(C(=O)O)cnn1-c1cccc(-c2cccc(C(F)(F)F)c2OCc2ccc3c(c2C)CCN(C2COC2)C3)n1"
  UNIT: "µg/mL"
  solubility at 24 h: 75
- SMILES: "CCOc1c(C(=O)O)cnn1-c1cccc(-c2cccc(C)c2OCc2ccc3c(c2C)CCN(C[C@H]2COCCO2)C3)n1"
  UNIT: "µg/mL"
  solubility at 24 h: 95

(I) COc1c(C(=O)O)cnn1-c1cccc(-c2cccc(C)c2OCc2cc(C)c3c(c2C)CCN(C2CCOCC2)C3)n1
(II) COc1c(C(=O)O)cnn1-c1cccc(-c2cccc(C)c2OCc2ccc3c(c2Cl)CCN(CC(C)(C)C)C3)n1
Input: From the recorded data, which exceeds the other in solubility at 24 h: I or II ? Your choice should be expressed through its label.
Output: I
(I: 97 µg/mL, II: 60 µg/mL)

----------
Target: human soluble guanylate cyclase alpha 1 and beta 1 subunits (sGC) (Homo sapiens, UniProt Q02108+Q02153)
Sequence (Q02108 1-690): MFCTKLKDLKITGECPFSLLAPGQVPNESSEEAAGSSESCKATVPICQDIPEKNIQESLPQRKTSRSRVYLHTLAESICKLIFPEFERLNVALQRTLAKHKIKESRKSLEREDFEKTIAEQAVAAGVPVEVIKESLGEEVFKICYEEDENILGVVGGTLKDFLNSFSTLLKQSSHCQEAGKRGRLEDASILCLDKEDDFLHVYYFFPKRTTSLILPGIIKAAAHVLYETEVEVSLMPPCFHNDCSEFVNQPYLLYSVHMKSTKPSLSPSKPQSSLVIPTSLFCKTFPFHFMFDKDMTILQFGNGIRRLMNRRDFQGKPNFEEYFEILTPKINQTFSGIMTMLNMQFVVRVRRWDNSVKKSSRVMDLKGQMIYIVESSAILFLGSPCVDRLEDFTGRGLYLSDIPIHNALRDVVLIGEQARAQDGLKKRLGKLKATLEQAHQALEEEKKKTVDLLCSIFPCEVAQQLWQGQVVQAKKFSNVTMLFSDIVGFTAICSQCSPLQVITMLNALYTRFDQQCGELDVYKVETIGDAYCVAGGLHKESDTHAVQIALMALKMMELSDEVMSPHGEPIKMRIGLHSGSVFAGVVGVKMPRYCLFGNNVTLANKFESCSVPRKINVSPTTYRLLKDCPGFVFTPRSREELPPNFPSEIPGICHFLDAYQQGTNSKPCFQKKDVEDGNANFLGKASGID
Sequence (Q02153 1-619): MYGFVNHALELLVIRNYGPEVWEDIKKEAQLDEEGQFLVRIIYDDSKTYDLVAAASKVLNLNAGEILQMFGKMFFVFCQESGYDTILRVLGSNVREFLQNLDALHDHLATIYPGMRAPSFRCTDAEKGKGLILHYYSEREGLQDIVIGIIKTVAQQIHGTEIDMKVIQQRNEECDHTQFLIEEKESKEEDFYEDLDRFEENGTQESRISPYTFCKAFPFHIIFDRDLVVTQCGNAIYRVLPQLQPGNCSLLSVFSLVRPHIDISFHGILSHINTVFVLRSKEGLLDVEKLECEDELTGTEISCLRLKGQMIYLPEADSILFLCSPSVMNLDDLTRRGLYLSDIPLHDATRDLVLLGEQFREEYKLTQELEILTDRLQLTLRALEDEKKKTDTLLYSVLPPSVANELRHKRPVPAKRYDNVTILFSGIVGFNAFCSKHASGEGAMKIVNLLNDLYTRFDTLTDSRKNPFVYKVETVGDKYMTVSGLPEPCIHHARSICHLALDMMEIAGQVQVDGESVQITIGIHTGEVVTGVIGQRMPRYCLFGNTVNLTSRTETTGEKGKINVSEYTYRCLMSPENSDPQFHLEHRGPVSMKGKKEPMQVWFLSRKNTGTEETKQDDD
Assay: sGC cellular activator assay (cGMP, HTRF)
Details: CHO cells stably expressing human sGC alpha 1/beta 1, preincubated with 40 microM ODQ; cGMP readout; assay run with and without 50% human serum, Table 2 does not say which
pEC50: −log10 of the molar value.
ENDPOINT: pEC50

As a guide, the following entries are already answered.
- COMPOUND: "COc1c(C(=O)O)cnn1-c1cccc(-c2cccc(C)c2OCc2ccc3c(c2)CCN([C@H]2CC[C@]4(CCCO4)CC2)C3)n1 [Compound 102]"
  pEC50: 6.96
- COMPOUND: "COc1c(C(=O)O)cnn1-c1cccc(-c2ccc(C)cc2OCc2ccc3c(c2)CCN(C2CCOCC2)C3)n1 [Compound 98]"
  pEC50: 6.57
- COMPOUND: "COCC(C)N1CCc2cc(COc3c(C)cccc3-c3cccc(-n4ncc(C(=O)O)c4OC(C)C)n3)ccc2C1 (stereo not drawn) [Compound 38]"
  pEC50: 7.18
- COMPOUND: "COc1c(C(=O)O)cnn1-c1cccc(-c2ccccc2OCc2ccc3c(c2)CCN(C2CCOCC2)C3)n1 [Compound 209]"
  pEC50: 6.70
- COMPOUND: "CCOc1c(C(=O)O)cnn1-c1cccc(-c2cccc(C)c2OCc2ccc3c(c2)CCN(CC2CCOC2)C3)n1 (stereo not drawn) [Compound 68]"
  pEC50: 7.42
- COMPOUND: "COc1c(C(=O)O)cnn1-c1cccc(-c2cccc(C)c2OCc2ccc3c(c2C)CN(C2CCOCC2)C3)n1 [Compound 256]"
  pEC50: 7.85

(I) CC(C)Oc1c(C(=O)O)cnn1-c1cccc(-c2ccccc2OCc2ccc3c(c2)CCN(C2CCOCC2)C3)n1 [Compound 144]
(II) COc1c(C(=O)O)cnn1-c1cccc(-c2cccc(C)c2OCc2ccc3c(c2)CCCN(C2CCOCC2)C3)n1 [Compound 100]
Input: Could you tell me which of these two has the smaller pEC50 figure? First: I Second: II Your choice should be expressed through its label.
Output: I
(I: 6.34, II: 6.77)

(1) CCOc1c(C(=O)O)cnn1-c1cccc(-c2cccc(C)c2OCc2ccc3c(c2C)CCN(C2COC(C)(C)OC2)C3)n1 [Compound 155]
(2) CCOc1c(C(=O)O)cnn1-c1cccc(-c2cccc(C)c2OCc2ccc3c(c2)CCN(C2CCOC(C)C2)C3)n1 (stereo not drawn) [Compound 78]
Input: From the recorded data, which exceeds the other in pEC50: 1 or 2 ? Your choice should be expressed through its label.
Output: 2
(2: 7.32, 1: 7.07)

----------
assay: Assessment of solubility (McIlvaine buffers, 24 h shake, UPLC-UV); assay type: physicochemical; settings: pH 4.5, aqueous buffer, kinetic from dmso stock
ENDPOINT: solubility at 24 h (µg/mL)

- COMPOUND: "CCOc1c(C(=O)O)cnn1-c1cccc(-c2cccc(Cl)c2OCc2ccc3c(c2)CCN(C(C)CO)C3)n1 (stereo not drawn)"
  solubility at 24 h, µg/mL: 66
- COMPOUND: "COc1c(C(=O)O)cnn1-c1cccc(-c2cccc(C)c2OCc2ccc3c(c2)C(C)(C)CN(C2CCOCC2)C3)n1"
  solubility at 24 h, µg/mL: 92
- COMPOUND: "CCOc1c(C(=O)O)cnn1-c1cccc(-c2cccc(C)c2OCc2ccc3c(c2)CCN(C2CCOCC2F)C3)n1 (stereo not drawn)"
  solubility at 24 h, µg/mL: 68
- COMPOUND: "COc1c(C(=O)O)cnn1-c1cccc(-c2cccc(C)c2OCc2ccc3c(c2)CCN(CC(C)(C)O)C3)n1"
  solubility at 24 h, µg/mL: 73
- COMPOUND: "CCOc1c(C(=O)O)cnn1-c1cccc(-c2cccc(C)c2OCc2cc3c(c(C(F)(F)F)c2)CN(C2CCOCC2)CC3)n1"
  solubility at 24 h, µg/mL: 70
- COMPOUND: "COc1c(C(=O)O)cnn1-c1cccc(-c2cccc(C)c2OCc2ccc3c(c2C)CCN(C[C@@H]2CCCO2)CC3)n1"
  solubility at 24 h, µg/mL: 68

(P) CCOc1c(C(=O)O)cnn1-c1cccc(-c2cccc(C)c2OCc2ccc3c(c2C)CCN(C[C@@H]2CCOC2)C3)n1
(Q) COc1c(C(=O)O)cnn1-c1cccc(-c2cccc(C)c2OCc2cc3c(c(C(F)(F)F)c2)CN(C2CCOCC2)CC3)n1
(R) COc1c(C(=O)O)cnn1-c1cccc(-c2cccc(C)c2OCc2ccc3c(c2C)CCN([C@@H]2CCCOC2)C3)n1
Input: Task field, ranking: reported solubility at 24 h, descending order. Give the labels in the order specified.
Output: R, P, Q

(a) CCOc1c(C(=O)O)cnn1-c1cccc(-c2cccc(C)c2OCc2ccc3c(c2C)CCN([C@@H]2CCOC2)CC3)n1
(b) COc1c(C(=O)O)cnn1-c1cccc(-c2ccc(C)cc2OCc2ccc3c(c2)CCN(C2CCOCC2)C3)n1
Input: From the recorded data, which exceeds the other in solubility at 24 h: a or b ? Your choice should be expressed through its label.
Output: b
(b: 110 µg/mL, a: 73 µg/mL)

(1) Cc1cccc(-c2cccc(-n3ncc(C(=O)O)c3OC(C)C)n2)c1OCc1ccc2c(c1)CCN(C1CCOCC1)C2
(2) Cc1cccc(-c2cccc(-n3ncc(C(=O)O)c3OC(C)C)n2)c1OCc1ccc2c(c1)CCN(C1COC1)C2
Input: From the recorded data, which exceeds the other in solubility at 24 h: 1 or 2 ? Your choice should be expressed through its label.
Output: 1
(1: 80 µg/mL, 2: 44 µg/mL)
